Molecular target: human recombinant adrenergic α2B receptor (Homo sapiens)
Construct: expressed in transfected cells; host or cells: CHO-K1
Test: Radioligand binding, adrenergic α2B ([3H]Rauwolscine)
Conditions: compound at 0.03 μM; [3H]Rauwolscine; repeat assays, each datapoint shown; read-out: Percentage inhibition of ligand binding, Adrenergic α2B
Recorded Endpoint: inhibition at 0.03 µM (%)

Examples with their reported inhibition at 0.03 µM follow.
>  <Compound>
Cc1cnc2c(c1)c1c(n2CCc2ccc(C)nc2)CCN2CCCC12 (single isomer, unassigned) [74b]

>  <inhibition at 0.03 µM (%)>
27

$$$$
>  <Compound>
CN1CCc2c(n(CC(O)c3ccncc3)c3ccc(Cl)cc23)CC1 (single isomer, unassigned) [15b]

>  <inhibition at 0.03 µM (%)>
103

$$$$
>  <Compound>
Cc1ccc2c(c1)c1c(n2CC(O)c2ccccn2)CN(C)CC1 (single isomer, unassigned) [22a]

>  <inhibition at 0.03 µM (%)>
22

$$$$

I. CN1CCc2c(c3ccc(C(F)(F)F)cc3n2CC(O)c2ccncc2)C1 (centres unmarked) [compound 65]
II. Cc1ccc2c(c1)c1c(n2CC(C)(O)c2ccc(F)cc2)CCN(C)C1 (single isomer, unassigned) [90a]
In: Which numeric inhibition at 0.03 µM is bigger, that of I or that of II ? // respond with label for picked entry
Out: II
(II: 97%, I: 64%)

---

Molecular target: human recombinant adrenergic α2B receptor (Homo sapiens, UniProt P18089)
Construct: expressed in transfected cells; host or cells: CHO-K1
Sequence (P18089 1-450): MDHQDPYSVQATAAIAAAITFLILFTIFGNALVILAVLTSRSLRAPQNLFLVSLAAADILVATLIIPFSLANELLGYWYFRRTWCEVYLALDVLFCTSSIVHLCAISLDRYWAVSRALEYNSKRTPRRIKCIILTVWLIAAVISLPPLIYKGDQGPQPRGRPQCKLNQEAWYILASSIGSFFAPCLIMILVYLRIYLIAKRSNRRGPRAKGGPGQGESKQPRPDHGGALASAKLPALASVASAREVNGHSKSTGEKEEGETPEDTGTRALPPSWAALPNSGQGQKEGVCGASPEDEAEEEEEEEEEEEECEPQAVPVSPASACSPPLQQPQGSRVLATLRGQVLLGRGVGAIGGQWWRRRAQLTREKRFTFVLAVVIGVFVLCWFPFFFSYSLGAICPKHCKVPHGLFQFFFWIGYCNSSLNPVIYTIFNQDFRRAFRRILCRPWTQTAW
Assay: Radioligand binding, adrenergic α2B ([3H]Rauwolscine)
Settings: compound at 0.03 μM; [3H]Rauwolscine; repeat assays, each datapoint shown; 0.03 µM
Recorded Endpoint: Percentage inhibition of ligand binding, Adrenergic α2B (%)

>  <Compound>
CCC1c2c(c3cc(C)ccc3n2CC(O)c2ccncc2)C2CCN1C2 (single isomer, unassigned) [36a]

>  <Endpoint Value>
33

$$$$
>  <Compound>
Cc1ccc2c(c1)c1c(n2CC(O)c2ccncc2)CCN(C)CC1 (centres unmarked) [compound 13]

>  <Endpoint Value>
92

$$$$
>  <Compound>
COc1ccc(C(O)Cn2c3c(c4cc(C)ccc42)CN(C)CC3)cn1 (single isomer, unassigned) [51a]

>  <Endpoint Value>
21

$$$$

1. Cc1ccc2c(c1)c1c(n2CC(O)c2cccnc2)CN(C)CC1 (centres unmarked) [compound 43]
2. Cc1ccc2c(c1)c1c(n2CC(O)c2ccc(F)cc2)CCN(C)C1 (single isomer, unassigned) [30b]
In: Compare Percentage inhibition of ligand binding, Adrenergic α2B: is it lower for 1 or for 2 ? // respond with label for picked entry
Out: 1
(1: 24%, 2: 102%)

---

Target: human recombinant adrenergic α1D receptor (Homo sapiens, UniProt P25100)
Construct: expressed in transfected cells; host or cells: HEK-293
Sequence (P25100 whole entry): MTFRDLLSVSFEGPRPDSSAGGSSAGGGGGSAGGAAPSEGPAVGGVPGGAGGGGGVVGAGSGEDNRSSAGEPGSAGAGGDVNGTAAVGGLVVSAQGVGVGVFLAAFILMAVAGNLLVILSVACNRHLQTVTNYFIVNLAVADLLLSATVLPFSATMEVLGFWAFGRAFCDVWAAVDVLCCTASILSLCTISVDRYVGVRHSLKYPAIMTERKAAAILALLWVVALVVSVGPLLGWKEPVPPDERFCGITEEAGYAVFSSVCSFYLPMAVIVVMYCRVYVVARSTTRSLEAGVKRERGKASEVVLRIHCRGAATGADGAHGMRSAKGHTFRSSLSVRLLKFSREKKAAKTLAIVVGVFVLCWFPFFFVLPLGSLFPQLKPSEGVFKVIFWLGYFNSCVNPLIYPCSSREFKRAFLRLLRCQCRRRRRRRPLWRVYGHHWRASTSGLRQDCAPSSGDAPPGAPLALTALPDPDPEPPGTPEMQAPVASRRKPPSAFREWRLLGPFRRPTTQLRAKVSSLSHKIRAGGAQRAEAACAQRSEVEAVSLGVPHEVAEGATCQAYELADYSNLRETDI
Assay: Radioligand binding, adrenergic α1D ([3H]Prazosin)
Conditions: read-out: Percentage inhibition of ligand binding, Adrenergic α1D (0.1 μM), compound at 0.1 μM; [3H]Prazosin; repeat datapoints each shown
Recorded Endpoint: inhibition at 0.1 µM (%)

>  <Smi>
C/C(=C/n1c2c(c3cc(C)ccc31)CCN(C)CC2)c1ccc(Cl)cc1Cl

>  <Tested System>
human recombinant adrenergic α1D receptor (Homo sapiens, UniProt P25100)

>  <Units Of Measure>
%

>  <inhibition at 0.1 µM>
48

$$$$

A. C/C(=C\n1c2c(c3cc(C)ccc31)CCN(C)CC2)c1ccc(Cl)cc1Cl
B. C/C(=C\n1c2c(c3cc(C)cc(C)c31)CN(C)CC2)c1ccc(C)nc1
C. Cc1ccc2c(c1)c1c(n2CNc2ccccn2)CCN(C)C1
D. Cc1ccc2c(c1)c1c(n2CCc2ccc(CO)nc2)CCN(C)C1
In: Ordering criterion: inhibition at 0.1 µM; begin with the maximum. Answer by listing the labels in the requested order.
Out: B, D, C, A
(B: 48%, D: 32%, C: 14%, A: -2%)

---

Target: rat adrenergic α1B receptor (Rattus norvegicus, UniProt P15823)
Construct: rat adrenergic α1B receptor obtained from Wistar Rat liver; from tissue; host or cells: Wistar rat liver
Assay: Radioligand binding, adrenergic α1B ([3H]Prazosin)
Conditions: read-out: Percentage inhibition of ligand binding, Adrenergic α1B (0.1 μM), compound at 0.1 μM; [3H]Prazosin; repeat datapoints each shown
Recorded Endpoint: inhibition at 0.1 µM (%)

Examples with their reported inhibition at 0.1 µM follow.
>  <Compound>
Cc1ccc2c(c1)c1c(n2CC(O)c2cn[nH]c2)CCN(C)C1 (single isomer, unassigned) [II-106a]

>  <Units Of Measure>
%

>  <Endpoint Value>
25

$$$$
>  <Compound>
Cc1ccc2c(c1)c1c(n2CC(N=[N+]=[N-])c2cnccn2)CCN2CCCC12 (stereo not drawn)

>  <Units Of Measure>
%

>  <Endpoint Value>
71

$$$$
>  <Compound>
Cc1ccc2c(c1CO)c1c(n2CC(O)c2ccncc2)CCN(C)C1 (stereo not drawn)

>  <Units Of Measure>
%

>  <Endpoint Value>
14

$$$$

a. Cc1ccc2c(c1)c1c(n2C2=C(c3ccc(C)s3)CCC2)CCN(C)C1
b. Cc1cnc2c(c1)c1c(n2CCc2cnccn2)CCN2CCCC12 (stereo not drawn)
In: Which numeric inhibition at 0.1 µM is bigger, that of a or that of b ? // respond with label for picked entry
Out: b
(b: 27%, a: 14%)

---

Biological target: human recombinant adrenergic α2A receptor (Homo sapiens, UniProt P08913)
Construct: expressed in transfected cells; host or cells: insect Sf9 cells
Sequence (P08913 whole entry): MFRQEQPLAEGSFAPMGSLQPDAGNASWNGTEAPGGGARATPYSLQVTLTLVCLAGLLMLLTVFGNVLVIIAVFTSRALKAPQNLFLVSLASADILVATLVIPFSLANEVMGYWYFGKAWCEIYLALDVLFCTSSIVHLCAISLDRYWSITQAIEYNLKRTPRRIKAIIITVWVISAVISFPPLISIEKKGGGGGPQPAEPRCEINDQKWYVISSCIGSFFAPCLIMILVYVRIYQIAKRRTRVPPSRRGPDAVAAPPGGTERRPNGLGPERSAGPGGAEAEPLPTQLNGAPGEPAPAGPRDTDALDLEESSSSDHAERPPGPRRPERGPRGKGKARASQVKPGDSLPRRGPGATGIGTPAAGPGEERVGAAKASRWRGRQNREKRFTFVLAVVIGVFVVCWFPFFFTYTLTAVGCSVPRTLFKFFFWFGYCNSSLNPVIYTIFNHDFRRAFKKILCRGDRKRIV
Experiment: Radioligand binding, adrenergic α2A ([3H]MK-912)
Settings: read-out: Percentage inhibition of ligand binding, Adrenergic α2A (0.1 μM), compound at 0.1 μM; [3H]MK-912; repeat datapoints each shown
Recorded Endpoint: inhibition at 0.1 µM (%)

Examples with their reported inhibition at 0.1 µM follow.
>  <Molecule>
Cc1ccc2c(c1)c1c(n2CC(O)c2ccncc2C)CCN(C)C1 (single isomer, unassigned) [133b]

>  <Recorded Endpoint>
inhibition at 0.1 µM

>  <Endpoint Value>
34

$$$$
>  <Molecule>
Cc1cc2c3c(n(CC(C)(O)c4cccnc4)c2cc1CO)CCN(C)C3 (centres unmarked)

>  <Recorded Endpoint>
inhibition at 0.1 µM

>  <Endpoint Value>
11

$$$$
>  <Molecule>
Cc1ccc(C#Cn2c3c(c4cc(Cl)ccc42)C2CCC(C3)N2C)cn1 (centres unmarked)

>  <Recorded Endpoint>
inhibition at 0.1 µM

>  <Endpoint Value>
9

$$$$

1. Cc1ccc2c(c1)c1c(n2CC(O)c2ccc(C(N)=O)nc2)CCN(C)C1 (centres unmarked) [144a]
2. Cc1ccc(CCn2c3c(c4cccnc42)C2CCCN2CC3)cn1 (centres unmarked)
In: Compare inhibition at 0.1 µM: is it lower for 1 or for 2 ? // respond with label for picked entry
Out: 2
(2: -3%, 1: 1%)

I. C/C(=C\n1c2c(c3cc(Cl)ccc31)CN(C)CC2)c1ccncc1
II. Cc1ccc2c(c1)c1c(n2CC(C)(O)c2cncc(C(=O)O)c2)CCN(C)C1 (centres unmarked)
III. Cc1ccc(C(O)Cn2c3c(c4cc(C)ccc42)CN(C)CC3)cc1 (racemic) [compound 183]
In: Ascending sort, inhibition at 0.1 µM. Answer by listing the labels in the requested order.
Out: II, I, III
(II: -2%, I: 62%, III: 93%)

---

Molecular target: rat adrenergic α1B receptor (Rattus norvegicus)
Construct: rat adrenergic α1B receptor obtained from Wistar Rat liver; from tissue; host or cells: Wistar rat liver
Sequence (P15823 1-515): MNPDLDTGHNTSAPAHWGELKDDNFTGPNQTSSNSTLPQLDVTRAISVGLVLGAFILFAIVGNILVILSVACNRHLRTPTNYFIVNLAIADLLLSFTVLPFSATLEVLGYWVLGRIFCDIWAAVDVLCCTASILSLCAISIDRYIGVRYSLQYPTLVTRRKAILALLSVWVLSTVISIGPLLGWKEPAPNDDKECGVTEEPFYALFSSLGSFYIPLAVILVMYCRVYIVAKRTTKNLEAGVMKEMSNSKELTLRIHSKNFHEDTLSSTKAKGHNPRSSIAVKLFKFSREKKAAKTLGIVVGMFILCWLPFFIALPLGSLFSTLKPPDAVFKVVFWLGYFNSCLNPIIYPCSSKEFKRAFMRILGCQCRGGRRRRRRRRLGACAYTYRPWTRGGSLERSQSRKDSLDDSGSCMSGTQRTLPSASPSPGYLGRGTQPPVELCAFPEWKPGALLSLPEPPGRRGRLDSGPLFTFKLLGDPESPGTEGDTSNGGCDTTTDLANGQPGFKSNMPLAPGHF
Test: Radioligand binding, adrenergic α1B ([3H]Prazosin)
Conditions: compound at 0.1 μM; [3H]Prazosin; repeat datapoints each shown; 0.1 µM
Recorded Endpoint: Percentage inhibition of ligand binding, Adrenergic α1B (0.1 μM) (%)

>  <Compound>
Cc1ccc2c(c1)c1c(n2CC(C)(O)c2cnccn2)CCN2CCCC12 (single isomer, unassigned) [176b]

>  <Endpoint Value>
41

$$$$

A. Cc1cnc2c(c1)c1c(n2CC(C)(O)c2ccc(F)cc2)CCN2CCCC12 (single isomer, unassigned) [II-149a]
B. Cc1ccc2c(c1)c1c(n2CC(O)c2ccc(C#N)nc2)CCN(C)C1 (single isomer, unassigned) [140b]
In: Which numeric Percentage inhibition of ligand binding, Adrenergic α1B (0.1 μM) is bigger, that of A or that of B ? // respond with label for picked entry
Out: A
(A: 90%, B: 18%)
